- Test system: ACHN
- method-notes: Growth inhibition of human ACHN cells after 48 hrs by sulforhodamine B assay
- Format: functional
Parameter: GI50. Scope: all listed entries.
recorded-metric: GI50 (µM)

INSERT INTO assay_data (smiles_entry, recorded_metric, unit_of_measurement, reported) VALUES
  ('COc1cccc(CCCC[C@@H]2C[C@@H]3C[C@@]4(O[C@H](CCC4(C)C)CC(=O)O[C@@H](CO)CC(=O)O3)O2)c1', 'GI50', 'µM', 11.5),
  ('CC1(C)CC[C@@H]2CC(=O)O[C@@H](CO)CC(=O)O[C@@H]3C[C@@H](CCCCc4c(Br)cc(Br)c(O)c4Br)O[C@@]1(C3)O2', 'GI50', 'µM', 16.2),
  ('CC1(C)CC[C@@H]2CC(=O)O[C@@H](CO)CC(=O)O[C@@H]3C[C@@H](CCCCc4cc(O)c(Br)cc4Br)O[C@@]1(C3)O2', 'GI50', 'µM', 5.75),
  ('CC1(C)CC[C@@H]2CC(=O)O[C@@H](CO)CC(=O)O[C@@H]3C[C@@H](CCCCc4cc(O)ccc4I)O[C@@]1(C3)O2', 'GI50', 'µM', 10.7),
  ('CC1(C)CC[C@@H]2CC(=O)O[C@@H](CO)CC(=O)O[C@@H]3C[C@@H](CCCCc4ccc(I)c(O)c4)O[C@@]1(C3)O2', 'GI50', 'µM', 10);

----------
Parameter: viability at 0.1 µM. Scope: all listed entries.
- method-notes: Cytotoxicity against human Raji cells assessed as cell viability at 10^-7 M
- Type: cell-based
- experimental-parameters: read-out: Activity
recorded-metric: viability at 0.1 µM (%)

INSERT INTO measurements (smiles_entry, recorded_metric, reported) VALUES
  ('CC1(C)CC[C@@H]2CC(=O)O[C@@H](CO)CC(=O)O[C@@H]3C[C@@H](CCCCc4cc(O)ccc4I)O[C@@]1(C3)O2', 'viability at 0.1 µM', 50),
  ('CC1(C)CC[C@@H]2CC(=O)O[C@@H](CO)CC(=O)O[C@@H]3C[C@@H](CCCCc4ccc(I)c(O)c4)O[C@@]1(C3)O2', 'viability at 0.1 µM', 50),
  ('COc1cccc(CCCC[C@@H]2C[C@@H]3C[C@@]4(O[C@H](CCC4(C)C)CC(=O)O[C@@H](CO)CC(=O)O3)O2)c1', 'viability at 0.1 µM', 60),
  ('CC(=O)Nc1ccc(CCCC[C@@H]2C[C@@H]3C[C@@]4(O[C@H](CCC4(C)C)CC(=O)O[C@@H](CO)CC(=O)O3)O2)cc1O', 'viability at 0.1 µM', 60);

----------
- System: MCF7
- method-notes: Growth inhibition of human MCF7 cells after 48 hrs by sulforhodamine B assay
- Type: functional
- experimental-parameters: MCF7, 48 h
recorded-metric: GI50 (µM)

INSERT INTO measurements (smiles_entry, recorded_metric, unit_of_measurement, inequality_sign, reported) VALUES
  ('CC1(C)CC[C@@H]2CC(=O)O[C@@H](CO)CC(=O)O[C@@H]3C[C@@H](CCCCc4c(Br)cc(Br)c(O)c4Br)O[C@@]1(C3)O2', 'GI50', 'µM', '=', 19.5),
  ('CC1(C)CC[C@@H]2CC(=O)O[C@@H](CO)CC(=O)O[C@@H]3C[C@@H](CCCCc4cc(O)c(Br)cc4Br)O[C@@]1(C3)O2', 'GI50', 'µM', '=', 12.3),
  ('CC1(C)CC[C@@H]2CC(=O)O[C@@H](CO)CC(=O)O[C@@H]3C[C@@H](CCCCc4ccc(I)c(O)c4)O[C@@]1(C3)O2', 'GI50', 'µM', '=', 12.3),
  ('CC(=O)Nc1ccc(O)cc1CCCC[C@@H]1C[C@@H]2C[C@@]3(O[C@H](CCC3(C)C)CC(=O)O[C@@H](CO)CC(=O)O2)O1', 'GI50', 'µM', '>', 100);
